- Protocol details: inhibitors of PAF-induced NFkB signaling in CF airway cells, dose response, cell-based, uHTS hits, panel, cytotoxicity readout (AID 624344)
- Run parameters: CF bronchial epithelial cells, PAF-induced NFkB reporter inhibition, with PAF, run 1; at 79 µM (top of the series) unless noted
Measured property: inhibition (%)
Quick reminder: number only, in %, skip the unit.

molecule="O=C(OC1CCOC1=O)c1ccccc1C(=O)c1ccc(Cl)c([N+](=O)[O-])c1 (configuration not stated)" result_number=98.5
molecule=Cc1c(C=O)c(C=O)c(C)n1Cc1ccccc1 result_number=118
molecule=O=C(c1nnsc1S(=O)(=O)c1ccc(Cl)cc1)N1CCOCC1 result_number=96
molecule="COc1ccc(-n2cc(-c3ccccc3)c3c(N4CC(C)OC(C)C4)ncnc32)cc1 (configuration not stated)" result_number=102
molecule=NC(N)=NN=C(c1ccc(F)cc1)c1ccc(C(F)(F)F)cc1 result_number=108

Can you share its inhibition? I mean this molecule: `COc1ccc(CN(C(=O)CSc2nnc(-c3c[nH]c4ccccc34)o2)c2ccc(F)cc2)cc1OC`
101

Please do the same for `Cc1ccc(Sc2c(C=O)c3ccccc3n2C)cc1` as well.
105

###

Reported inhibition values follow for various compounds
- Target: Caspase-3 (Homo sapiens)
- Protocol details: caspase-3 protease inhibitors, confirmation, selectivity assay for SENP inhibitor project, biochemical, single concentration (AID 488918);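 also: plate controls were enzyme with DMSO for no effect and wells without caspase-3 for full effect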
- Run parameters: purified caspase-3, Z-DEVD-aminoluciferin luminescence, 60 min; at 12.5 µM; stronger effect = higher value
Some of the results follow. Activity calls are given as the source filed them.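 Rule for the calls: active = mean inhibition above about 50% (limit read from the data); inactive = the rest.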

compound=C(=N\Nc1ccc2ccccc2n1)/c1ccc2c(c1)OCO2 result="93.2% (active)"
compound=c1csc(-c2nc(-c3ccncc3)no2)c1 result="80.4% (active)"
compound=CCOC(=O)c1cccc(NC(=O)c2ccc(F)cc2F)c1 result="67.9% (active)"
compound=Cc1ccc(-c2cn3cc(C)ccc3n2)cc1 result="95% (active)"
compound="COc1ccccc1NC(=O)c1ccc(N2CC3CC(C2)c2cccc(=O)n2C3)c(NC(=O)c2cccnc2)c1 (stereo not drawn)" result="8.9% (inactive)"

Which measured inhibition value corresponds to `Cc1cccc(NC(=O)/C=C/c2ccc3c(c2)OCO3)n1` ?
87.1% (active)

Input `CC(C)(C)c1ccc(NC(=O)NCc2ccco2)cc1`
-5.5% (inactive)

Consider next the compound `Cc1ccc(-n2ncc3c(Nc4cccc(C(=O)O)c4)ncnc32)cc1` in the same way.
44.3% (inactive)

Here is the next compound: `O=C(Nc1nnc(C2CC2)s1)c1ccccn1`
83.6% (active)

And the next one, `Fc1ccccc1-c1cc2cc3c(cc2cn1)OCO3` ?
51.6% (active)

Also need `O=C(Nc1cccc2ccccc12)c1onc2c1CCCC2` , thanks.
78.6% (active)

// repeat for `CCOC(=O)c1ccc(Nc2cc3ccccc3c(=O)[nH]2)cc1` and report
9.8% (inactive)

Same question for `O=C(Nc1nnc(S(=O)(=O)N2CCCCCC2)s1)c1cccc(Br)c1` please.
28.6% (inactive)

###

- Protocol details: inhibition of Brca1/Bard1 split-luciferase complementation, confirmation, counter-screen for Mdm2/MdmX interaction inhibitor project, luminescence, single concentration (AID 504668)
- Run parameters: Brca1/Bard1 bimolecular luciferase complementation counterscreen, at 8 µM, stronger effect = higher value
# Lookup of reported inhibition keyed by entry
The response must be a number in % with no trailing unit.

// returns reported inhibition for input `Cc1ccc(C)c(C(=O)Cn2ncc(Cl)c(Cl)c2=O)c1`
31.7

Would you kindly repeat that for `COc1ccc(NC(=O)Nc2cccc3c2O[C@H](CN(C)Cc2ccc(-c4ccccc4)cc2)[C@@H](C)CN([C@H](C)CO)C3=O)cc1` ?
31

Same thing, different compound: `C[C@@]12C(=O)Nc3cc(Cl)ccc3C(=O)N1[C@H]1c3cc(Br)ccc3OC[C@@H]1[C@@H]2c1ccccc1`
30.8
